B1: Syntaxin-binding protein 4, residues 493 to 538; numbered along this chain, Q6ZWJ1 (parent)
chain: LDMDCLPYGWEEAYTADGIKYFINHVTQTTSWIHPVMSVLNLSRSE

Variants of: B1
Assay: abundance fitness (aPCA) (normalised: wild type 0, dead -1); higher = more abundant; growth selection in yeast, the domain comes from the species named
Conditions: Homo sapiens
# abundance fitness >= -0.4 gives met, anything below gives not met

>>> df
    mutation_label  category_label
 0             D2I         not met
 1            I23N         not met
 2            K20V         not met
 3            S43F         not met
 4            G18Y         not met
 5            N41V         not met
 6            Y21Q         not met
 7             M3Y         not met
 8            Q28V         not met
 9            G18V         not met
10            V39M             met
11            L40S             met
12            W10S         not met
13            V39Y         not met
14            G18S         not met
15            H25V         not met
16            I23H         not met
17            V39K             met
18            Q28G             met
19            V39Q             met
20            E11G         not met
21             C5N             met
22            E46F             met
23            H25P             met
24             C5Y             met
25            H25G         not met
26            Y14L         not met
27            F22K         not met
28             M3T             met
29            A16R         not met
30            P35M         not met
31            Y14K         not met
32            V39L             met
33            V36T             met
34            E46D             met
35            A16V         not met
36            I23G         not met
37            W10P         not met
38            H34E         not met
39            M37V             met
40             C5V             met
41            S38R         not met
42             G9V         not met
43            V36P         not met
44            S31K         not met
45            W32V         not met
46            T27Y             met
47            S43V         not met
48            E11K         not met
49            M37N             met
50            T15K         not met
51            V36L             met
52            S45P             met
53             C5H             met
54            N24G         not met
55            E12N         not met
56             C5F             met
57            T29A         not met
58            H34T         not met
59            I33R         not met
60             D4E             met
61            Q28S             met
62            L40A             met
63            R44T             met
64            T30Y         not met
